test system: Escherichia coli; assay: Antimicrobial activity against Escherichia coli GC 2883 expressing OXA10 and PSE2 beta-lactamase after 18 to 24 hrs by broth microdilution method; format: functional
PARAMETER MEASURED: log10 of MIC (log10 of the value in µg/mL)
A value of 2 here means MIC of 100 in µg/mL, since values are log10.

>>> quantitative_readout("O=C([O-])C1=CS[C@@H]2/C(=C\\c3cn4c5c(sc4n3)CCCC5)C(=O)N12.[Na+]")
0.30
>>> quantitative_readout("Cn1c2ccccc2n2cc(/C=C3/C(=O)N4C(C(=O)[O-])=CS[C@H]34)nc12.[Na+]")
1.81
>>> quantitative_readout("O=C([O-])C1=CS[C@@H]2/C(=C\\c3cc4oc5c(n4n3)CCCC5)C(=O)N12.[Na+]")
0.90

For O=C([O-])C1=CS[C@@H]2/C(=C\c3cn4c(n3)nc3n4CCCC3)C(=O)N12.[Na+] the compound record lists log10 of MIC as 0.30

For O=C([O-])C1=CS[C@@H]2/C(=C\c3cc4oc5c(n4n3)CCOC5)C(=O)N12.[Na+] the compound record lists log10 of MIC as 0.90

---

assay: Inhibition of Imi1 beta lactamase
pIC50: −log10 of the molar value.
Label condition met when pIC50 is at or above 7; anything below gets condition not met.

Some solved entries appear below for comparison.
>>> label_value("Cn1c2ccccc2n2cc(/C=C3/C(=O)N4C(C(=O)[O-])=CS[C@H]34)nc12.[Na+]")
"condition met"
>>> label_value("O=C([O-])C1=CS[C@@H]2/C(=C\\c3cn4c(n3)nc3n4CCCC3)C(=O)N12.[Na+]")
"condition met"
>>> label_value("O=C([O-])C1=CS[C@@H]2/C(=C\\c3cn4c5c(sc4n3)CCCC5)C(=O)N12.[Na+]")
"condition met"

Exam item: decide whether the reported pIC50 for O=C([O-])C1=CS[C@@H]2/C(=C/c3cc4oc5c(n4n3)CCOC5)C(=O)N12.[Na+] is at least 7.
Marked response: condition not met

---

test system: Escherichia coli; assay: Antimicrobial activity against Escherichia coli GC 2847 expressing TEM1 beta-lactamase after 18 to 24 hrs by broth microdilution method; assay type: functional
Mark Y only when MIC stays strictly below 20 µg/mL. Values equal to the cut-off are N.

Some solved entries appear below for comparison.
>>> label_value("CCOC(=O)N1CCc2c(oc3cc(/C=C4/C(=O)N5C(C(=O)[O-])=CS[C@H]45)nn23)C1.[Na+]")
"N"
>>> label_value("C[C@]1(Cn2ccnn2)[C@H](C(=O)[O-])N2C(=O)C[C@H]2S1(=O)=O.[Na+] [TAZOBACTAM SODIUM]")
"Y"
>>> label_value("O=C([O-])C1=CS[C@@H]2/C(=C\\c3cc4oc5c(n4n3)CCOC5)C(=O)N12.[Na+]")
"N"
>>> label_value("O=C([O-])C1=CS[C@@H]2/C(=C\\c3cn4c5c(sc4n3)COCC5)C(=O)N12.[Na+]")
"Y"

Exam item: Consider O=C([O-])C1=CS[C@@H]2/C(=C/c3cc4oc5c(n4n3)CCOC5)C(=O)N12.[Na+] . Does its MIC lie strictly below 20 µg/mL?
Marked response: N

Exam item: Consider O=C([O-])C1=CS[C@@H]2/C(=C\c3cn4c5c(sc4n3)CCCC5)C(=O)N12.[Na+] . Does its MIC lie strictly below 20 µg/mL?
Marked response: Y

Exam item: Consider Cn1c2ccccc2n2cc(/C=C3/C(=O)N4C(C(=O)[O-])=CS[C@H]34)nc12.[Na+] . Does its MIC lie strictly below 20 µg/mL?
Marked response: N

Exam item: Consider O=C([O-])C1=CS[C@@H]2/C(=C\c3cn4c(n3)nc3n4CCCC3)C(=O)N12.[Na+] . Does its MIC lie strictly below 20 µg/mL?
Marked response: Y

Exam item: Consider O=C([O-])C1=CS[C@@H]2/C(=C\c3cn4c5c(sc4n3)CCC5)C(=O)N12.[Na+] . Does its MIC lie strictly below 20 µg/mL?
Marked response: Y

Exam item: Consider O=C([O-])C1=CS[C@@H]2/C(=C\c3cc4oc5c(n4n3)CCCC5)C(=O)N12.[Na+] . Does its MIC lie strictly below 20 µg/mL?
Marked response: Y
